Test system: NCI-H460
Experiment: relative viability (nuclei count vs DMSO), 5 days (fraction); higher = more cells survive
Conditions: first compound 0.05 µM
VALUE_TYPE: relative viability
No unit in the answer, only the number.

## Task Which relative viability value belongs to Nc1ccn([C@@H]2O[C@H](CO)[C@@H](O)[C@@H]2O)c(=O)n1 [Cytarabine] + O=C(c1cc(Cc2n[nH]c(=O)c3ccccc23)ccc1F)N1CCN(C(=O)C2CC2)CC1 [Olaparib] (partner 8 µM) ?
## Result 0.237

## Task What relative viability value was documented for this compound, COc1cc2nccc(Oc3ccc(NC(=O)Nc4cc(C)on4)c(Cl)c3)c2cc1OC [Tivozanib] + CS(=O)(=O)CCNCc1ccc(-c2ccc3ncnc(Nc4ccc(OCc5cccc(F)c5)c(Cl)c4)c3c2)o1 [Lapatinib] (partner 2 µM) ?
## Result 0.979

## Task What measured relative viability goes with Nc1ccn([C@@H]2O[C@H](CO)[C@@H](O)[C@@H]2O)c(=O)n1 [Cytarabine] + N=C(N)NC(=N)NCCc1ccccc1 [Phenformin] (partner 250 µM) ?
## Result 0.114

## Task Using the record for Nc1ccn([C@@H]2O[C@H](CO)[C@@H](O)[C@@H]2O)c(=O)n1 [Cytarabine] + Cc1nc(Nc2ncc(C(=O)Nc3c(C)cccc3Cl)s2)cc(N2CCN(CCO)CC2)n1 [Dasatinib] (partner 0.075 µM) , report its relative viability.
## Result 0.105

meta.source: the supplement of paper PMC10307832
